Assignment: determine reported EC50 for the given compounds.
Target: hTLR7 (Homo sapiens)
Construct: host or cells: HEK293
Assay: TLR7 agonist activity, HEK293 hTLR7 SEAP reporter assay
Format: cell-based
Conditions: HEK293 cotransfected with hTLR7 and inducible SEAP reporter gene, 24 h treatment; average ± SD of three independent replicates; n.a. = not active; read-out: EC50
One number for each entry, in µM.

CC1CCCCN1c1nc(C(F)(F)F)nc2onc(-c3ccc(F)cc3)c12 (stereo not shown) [Compound 21e]; 63.3
CC1CCCN(c2nc(C(F)(F)F)nc3onc(Cc4ccc(F)c(F)c4)c23)C1 (stereo not shown) [Compound 23a]; 19.9

// switching to the query compound
GET /values?item= CC(C)C1CCCN(c2nc(C(F)(F)F)nc3onc(-c4ccc(F)cc4)c23)C1 (stereo not shown) [Compound 21q] &system= hTLR7 (Homo sapiens) returns EC50: 81.1

---

Target: hTLR7 (Homo sapiens)
Construct: host or cells: HEK293
Assay: TLR7 agonist activity, HEK293 hTLR7 SEAP reporter assay
Type: cell-based
Settings: HEK293 cotransfected with hTLR7 and inducible SEAP reporter gene, 24 h treatment; average ± SD of three independent replicates; n.a. = not active
Procedure: TLR7 agonist activities were determined using the HEK293 cell line, which was cotransfected with the hTLR7 gene and an inducible SEAP reporter gene (InvivoGen, San Diego, California, USA) as described previously.[34] […] The activity of SEAP in the supernatant of the cells was measured using the QUANTI-Blue reagent (InvivoGen, San Diego, California, USA), according to the manufacturer's protocol. […] Values are given as averages from the independent measurements with standard deviations calculated.
reportedProperty: EC50

Some compounds with known EC50 results, for comparison:
Fc1ccc(-c2noc3nc(C(F)(F)F)nc(NC4CC4)c23)cc1 [Compound 21c]; inactive
CN1CCN(c2nc(C(F)(F)F)nc3onc(-c4ccc(F)cc4)c23)CC1 [Compound 21j]; lacked activity
CC1CN(c2nc(C(F)(F)F)nc3onc(-c4ccc(F)cc4)c23)CCN1 (stereo not shown) [Compound 21h]; lacked activity
CC1CCCN(c2nc(C(F)(F)F)nc3onc(-c4ccccc4)c23)C1 (stereo not shown) [Compound 14a]; inactive
CC1(C)CCCN(c2nc(C(F)(F)F)nc3onc(-c4ccc(F)cc4)c23)C1 [Compound 21o]; slightly less potent

Provide the reported EC50 of each entry below, same order.
1. Fc1ccc(-c2noc3nc(C(F)(F)F)nc(N4CCCC5(CC5)C4)c23)cc1 [Compound 21p]
2. CC(C)CNc1nc(C(F)(F)F)nc2onc(-c3ccccc3)c12 [Compound 14b]

1: slightly less potent; 2: inactive

---

So I've got a bunch of compounds here, and I need their pEC50 values.
Target: hTLR7 (Homo sapiens, UniProt Q9NYK1)
Construct: host or cells: HEK293
Sequence (Q9NYK1 27-1049): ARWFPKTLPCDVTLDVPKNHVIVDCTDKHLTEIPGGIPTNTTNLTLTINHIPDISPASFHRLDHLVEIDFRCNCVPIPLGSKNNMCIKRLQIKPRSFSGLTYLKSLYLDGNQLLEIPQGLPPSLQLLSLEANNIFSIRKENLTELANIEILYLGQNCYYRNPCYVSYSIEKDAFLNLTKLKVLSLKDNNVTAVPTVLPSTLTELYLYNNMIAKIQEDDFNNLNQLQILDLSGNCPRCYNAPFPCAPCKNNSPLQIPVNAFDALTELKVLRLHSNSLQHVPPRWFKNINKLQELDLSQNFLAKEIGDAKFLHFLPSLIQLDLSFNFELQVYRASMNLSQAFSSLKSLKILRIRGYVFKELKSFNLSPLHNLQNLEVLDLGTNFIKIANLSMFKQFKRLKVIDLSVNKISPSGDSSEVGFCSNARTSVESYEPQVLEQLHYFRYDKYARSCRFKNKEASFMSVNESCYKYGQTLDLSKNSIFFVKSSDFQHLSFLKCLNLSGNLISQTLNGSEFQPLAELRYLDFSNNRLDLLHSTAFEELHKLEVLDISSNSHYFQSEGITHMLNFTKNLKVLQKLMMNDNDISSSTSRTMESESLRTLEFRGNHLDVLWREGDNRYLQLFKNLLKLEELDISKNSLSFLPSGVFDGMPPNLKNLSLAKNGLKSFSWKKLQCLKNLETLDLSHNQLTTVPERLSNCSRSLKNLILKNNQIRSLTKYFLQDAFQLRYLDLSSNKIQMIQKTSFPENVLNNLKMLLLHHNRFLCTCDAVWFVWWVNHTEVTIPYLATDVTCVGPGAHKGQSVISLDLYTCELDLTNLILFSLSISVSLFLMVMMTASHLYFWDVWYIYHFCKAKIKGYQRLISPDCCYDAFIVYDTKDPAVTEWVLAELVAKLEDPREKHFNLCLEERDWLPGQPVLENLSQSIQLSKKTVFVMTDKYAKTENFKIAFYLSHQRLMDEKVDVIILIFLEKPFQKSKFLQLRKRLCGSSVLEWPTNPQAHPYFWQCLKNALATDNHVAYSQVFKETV
Assay: TLR7 agonist activity, HEK293 hTLR7 SEAP reporter assay
Type: cell-based
Details: HEK293 cotransfected with hTLR7 and inducible SEAP reporter gene, 24 h treatment; average ± SD of three independent replicates; n.a. = not active; read-out: EC50
Answers are plain numbers, as −log10 of the molar value.

# annotated cases, reported pEC50 shown
CC1CN(c2nc(C(F)(F)F)nc3onc(-c4ccc(F)cc4)c23)CCO1 (stereo not drawn) [Compound 21g]; 4.96
CC1CCCN(c2nc(C(F)(F)F)nc3onc(-c4ccc(Cl)cc4)c23)C1 (stereo not drawn) [Compound 15a]; 4.67

Give one value of pEC50 per listed compound.
1. CC1CCN(c2nc(C(F)(F)F)nc3onc(-c4ccc(F)cc4)c23)CC1 [Compound 21f]
2. CC1CCCN(c2nc(C(F)(F)F)nc3onc(-c4ccc(F)c(Br)c4)c23)C1 (stereo not drawn)
3. CC1CCCC(c2nc(C(F)(F)F)nc3onc(-c4ccc(F)cc4)c23)C1 (stereo not drawn) [Compound 21y]
4. CC1CCCN(c2nc(C(F)(F)F)nc3onc(-c4ccc(F)cc4)c23)C1 (stereo not drawn) [Compound 21a]
5. CC1CCCN(c2nc(C(F)(F)F)nc3onc(C4CC4)c23)C1 (stereo not drawn) [Compound 24a]
6. CC1(C)CCCN(c2nc(C(F)(F)F)nc3onc(-c4ccc(F)cc4)c23)C1 [Compound 21o]
7. Fc1ccc(-c2noc3nc(C(F)(F)F)nc(N4CCCC5(CC5)C4)c23)cc1 [Compound 21p]

[4.17, 4.79, 4.80, 5.11, 4.60, 4.61, 4.76]
